experiment: Cytotoxicity against human NCM460 cells incubated for 72 hrs by MTS assay; assay type: toxicity, cell-based
Kindly supply the reported IC50 at 72 h values for the records listed here.
Numbers only, in µM.

compound | IC50 at 72 h [µM]
C=C(C)C(=O)N1CCc2cccc(C3=CC(=O)N(C)C3=O)c21 | 63.7

Field: next compound
Input: Look up IC50 at 72 h: O=c1[nH]cc(F)c(=O)[nH]1 [FLUOROURACIL]
Output: 7.95

* * *

test system: HCT-116; assay: Cytotoxicity against human HCT-116 cells at 5 uM incubated for 72 hrs by MTS assay; format: functional
measured_metric: Activity (%)
One number for each entry, in %.

structure_smiles_string | Activity, %
CN1C(=O)C=CC1=O | 51.17
COC(=O)CCN1C(=O)C=C(c2cccc3c2N(C(=O)C(C)(C)C)CC3)C1=O | 21.18
CN1C(=O)C=C(c2cc(F)cc3c2N(C(=O)C(C)(C)C)CC3)C1=O | 6.51
CN1C(=O)C=C(c2cccc3c2N(C(=O)c2cc4ccccc4o2)CC3)C1=O | 11.36
CCC(=O)N1CCc2cccc(C3=CC(=O)N(C)C3=O)c21 | 4.19
C=C(C)C(=O)N1CCc2cccc(C3=CC(=O)N(C)C3=O)c21 | 98.06
O=c1[nH]cc(F)c(=O)[nH]1 | 37.53
CCN1C(=O)C=C(c2cccc3c2N(C(=O)C(C)(C)C)CC3)C1=O | 59.58

I'm hoping you can list Activity for every compound here, please.
1. CCc1ccc(N2C(=O)C=C(c3cccc4c3N(C(=O)C(C)(C)C)CC4)C2=O)cc1
2. C=C(C)C(=O)n1ccc2cccc(C3=CC(=O)N(C)C3=O)c21
3. CN1C(=O)C=C(c2cccc3c2N(C(=O)C(C)(C)C)CC3)C1=O
4. CN1C(=O)C=C(c2cccc3c2N(C(=O)C2CC2)CC3)C1=O
5. C=CC(=O)N1CCc2cccc(C3=CC(=O)N(C)C3=O)c21

Output:
[10.96, 32.89, 76.85, 76.22, 23.11]

* * *

Answer each item with its documented Activity.
system: HT-29; experiment: Cytotoxicity against human HT-29 cells at 5 uM incubated for 72 hrs by MTS assay; format: functional
Numbers only, in %.

structure_smiles_string | recorded_value
COc1ccc(C2=CC(=O)N(C)C2=O)c2c1CCN2C(=O)C(C)(C)C | 4.04
C=C(C)C(=O)N1CCc2cccc(C3=CC(=O)N(C)C3=O)c21 | 99.28
C=CC(=O)N1CCc2cccc(C3=CC(=O)N(C)C3=O)c21 | 2.14
CN(C)C(=O)N1CCc2cccc(C3=CC(=O)N(C)C3=O)c21 | 5.08
CN1C(=O)C=C(c2cccc3c2N(C(=O)C(C)(C)C)CC3)C1=O | 49.95
CN1C(=O)C=C(c2cccc3c2N(C(=O)c2ccccc2)CC3)C1=O | 4.95
CN1C(=O)C=C(c2cccc3c2N(C(=O)C2CC2)CC3)C1=O | 43.87
CC(=O)N1CCc2cccc(C3=CC(=O)N(C)C3=O)c21 | 6.8

For the 2 molecules below, give their Activity values.
1. O=c1[nH]cc(F)c(=O)[nH]1
2. C=C(C)C(=O)N1CCc2ccccc21

Output:
29.52
4.7

* * *

tested on: HT-29; test: Cytotoxicity against human HT-29 cells at 5 uM incubated for 72 hrs by MTS assay; format: functional
Tick Criterion met if Activity is 7% or greater. Tick Criterion not met if Activity is less than 7%.

compound | assigned_category
CN1C(=O)C=C(c2cc(C#N)cc3c2N(C(=O)C(C)(C)C)CC3)C1=O | Criterion not met

Input: Entry "CN1C(=O)C=C(c2cc(F)cc3c2N(C(=O)C(C)(C)C)CC3)C1=O" : is its Activity no less than 7%?
Output: Criterion met

Input: Reported Activity at or above 7%? "CC(=O)c1ccc(N2C(=O)C=C(c3cccc4c3N(C(=O)C(C)(C)C)CC4)C2=O)cc1"
Output: Criterion not met

Input: Can "C=C(C)C(=O)n1ccc2cccc(C3=CC(=O)N(C)C3=O)c21" be said to have Activity at or above 7%?
Output: Criterion met
